# Test system: HeLa
# Assay remarks: Cytotoxicity against human HeLa cells at 50 ug/ml after 48 hrs by BrdU incorporation assay relative to control
# Type: functional
# Condition info: read-out: GI
Some compounds, each annotated with its measured inhibition of growth at 50 µg/mL.
// note: answer is a bare numeric in %

Worked cases, inhibition of growth at 50 µg/mL given:
                                   molecule  result_value
0  CCOC(=O)C/C(=N\N=C1/NCCN1c1ccc(Cl)cc1)C(=O)OCC            30
1  CCOC(=O)C/C(=N\N=C1/NCCN1c1cccc(Cl)c1)C(=O)OCC            25
2  CCOC(=O)Cc1nnc2n(c1=O)CCN2c1ccc(Cl)c(Cl)c1            45
3        CCOC(=O)Cc1nnc2n(c1=O)CCN2c1ccccc1            75
4    CCOC(=O)Cc1nnc2n(c1=O)CCN2c1cccc(Cl)c1            50

Dear colleague, I am looking for the recorded inhibition of growth at 50 µg/mL of the following compound: "CCOC(=O)C/C(=N\N=C1/NCCN1c1ccc(Cl)c(Cl)c1)C(=O)OCC"
50

Dear colleague, I am looking for the recorded inhibition of growth at 50 µg/mL of the following compound: "CCOC(=O)Cc1nnc2n(c1=O)CCN2c1ccccc1OC"
45

Dear colleague, I am looking for the recorded inhibition of growth at 50 µg/mL of the following compound: "CCOC(=O)Cc1nnc2n(c1=O)CCN2c1ccc(C)cc1"
70

Dear colleague, I am looking for the recorded inhibition of growth at 50 µg/mL of the following compound: "CCOC(=O)Cc1nnc2n(c1=O)CCN2c1ccc(Cl)cc1"
30

Dear colleague, I am looking for the recorded inhibition of growth at 50 µg/mL of the following compound: "CCOC(=O)C/C(=N\N=C1/NCCN1c1ccc(C)cc1)C(=O)OCC"
45
